System: Fibroblast
protocol-text: Multiplex assay against human fibroblast
Assay type: toxicity, cell-based
experimental-conditions: 12 h, 10 µM, compound concentration 10 uM, replicate 1
outcome-measure: Population Tubulin-Different-Phenotype (%)
Field: value (include unit after the number)

Examples from the recorded data:
Given `CCOc1c2c(c(OCC)c3ncccc13)CN(c1ccc(CS(=O)(=O)NC(=O)Cc3ccccc3OC)cc1C)C2=O` , state its recorded Population Tubulin-Different-Phenotype (%).
27%

Here is the next compound: CN1CCN2c3ncccc3Cc3ccccc3C2C1 (stereo not drawn) [MIRTAZAPINE]
30%

Also `CN(C)CCCc1cc(C(=O)Nc2ccc(-c3ccncc3)cc2)ccc1O.Cl.Cl` , if possible.
43%

Then this compound: `CSCC[C@H](NC=O)C(=O)N[C@@H](CC(C)C)C(=O)N[C@@H](Cc1ccccc1)C(=O)O`
24%

# iterate: `COc1cc(C(=O)N(CCCc2ccccc2)Cc2ccc(CC(=O)O)cc2)cc(OC)c1C`
28%

Also, COc1ccc2c(c1)C(C(=O)N(Cc1ccc(N(C)C)cc1)c1ccc(C(C)C)cc1)CCC2.Cl (stereo not drawn) please.
67%

Continuing:
Field request: Population Tubulin-Different-Phenotype (%) | item: `COc1c(C)cc(NC(=O)c2nn(Cc3ccc(F)cc3)c3c2CN(C(=O)c2ccc[nH]2)C[C@]3(C)C(N)=O)cc1C`
90%

What do you get for c1cc(OCCCN2CCCCC2)ccc1CN1CCCCC1 [JNJ-5207852] ?
35%

What about `CC[C@H]1OC(=O)[C@H](C)[C@@H](O[C@H]2C[C@@](C)(OC)[C@@H](O)[C@H](C)O2)[C@H](C)[C@@H](O[C@@H]2O[C@H](C)C[C@H](N(C)C)[C@H]2O)[C@@]2(C)CC(C)=C(O2)[C@H](C)[C@@H](O)[C@]1(C)O` ?
86%

Quick one: CC(=O)NCCc1c(Cc2ccccc2)[nH]c2ccccc12 [LUZINDOLE]
42%

Please answer likewise for `CCCn1c(=O)c2[nH]c(C3CCCC3)nc2n(CCC)c1=O`
47%

Further, for C[C@H]1[C@H]2CC[C@H]3[C@@H]4CC=C5C[C@@H](N(C)C)CC[C@]5(C)[C@H]4CC[C@]23CN1C [CONESSINE] ?
32%

// query: N[C@@]1(C(=O)O)CO[C@H]2[C@H](C(=O)O)[C@H]21 [LY-379268]
19%
